TARGET_SYSTEM: Ataxin-2 (Homo sapiens) (UniProt Q99700)
Sequence (Q99700 whole entry): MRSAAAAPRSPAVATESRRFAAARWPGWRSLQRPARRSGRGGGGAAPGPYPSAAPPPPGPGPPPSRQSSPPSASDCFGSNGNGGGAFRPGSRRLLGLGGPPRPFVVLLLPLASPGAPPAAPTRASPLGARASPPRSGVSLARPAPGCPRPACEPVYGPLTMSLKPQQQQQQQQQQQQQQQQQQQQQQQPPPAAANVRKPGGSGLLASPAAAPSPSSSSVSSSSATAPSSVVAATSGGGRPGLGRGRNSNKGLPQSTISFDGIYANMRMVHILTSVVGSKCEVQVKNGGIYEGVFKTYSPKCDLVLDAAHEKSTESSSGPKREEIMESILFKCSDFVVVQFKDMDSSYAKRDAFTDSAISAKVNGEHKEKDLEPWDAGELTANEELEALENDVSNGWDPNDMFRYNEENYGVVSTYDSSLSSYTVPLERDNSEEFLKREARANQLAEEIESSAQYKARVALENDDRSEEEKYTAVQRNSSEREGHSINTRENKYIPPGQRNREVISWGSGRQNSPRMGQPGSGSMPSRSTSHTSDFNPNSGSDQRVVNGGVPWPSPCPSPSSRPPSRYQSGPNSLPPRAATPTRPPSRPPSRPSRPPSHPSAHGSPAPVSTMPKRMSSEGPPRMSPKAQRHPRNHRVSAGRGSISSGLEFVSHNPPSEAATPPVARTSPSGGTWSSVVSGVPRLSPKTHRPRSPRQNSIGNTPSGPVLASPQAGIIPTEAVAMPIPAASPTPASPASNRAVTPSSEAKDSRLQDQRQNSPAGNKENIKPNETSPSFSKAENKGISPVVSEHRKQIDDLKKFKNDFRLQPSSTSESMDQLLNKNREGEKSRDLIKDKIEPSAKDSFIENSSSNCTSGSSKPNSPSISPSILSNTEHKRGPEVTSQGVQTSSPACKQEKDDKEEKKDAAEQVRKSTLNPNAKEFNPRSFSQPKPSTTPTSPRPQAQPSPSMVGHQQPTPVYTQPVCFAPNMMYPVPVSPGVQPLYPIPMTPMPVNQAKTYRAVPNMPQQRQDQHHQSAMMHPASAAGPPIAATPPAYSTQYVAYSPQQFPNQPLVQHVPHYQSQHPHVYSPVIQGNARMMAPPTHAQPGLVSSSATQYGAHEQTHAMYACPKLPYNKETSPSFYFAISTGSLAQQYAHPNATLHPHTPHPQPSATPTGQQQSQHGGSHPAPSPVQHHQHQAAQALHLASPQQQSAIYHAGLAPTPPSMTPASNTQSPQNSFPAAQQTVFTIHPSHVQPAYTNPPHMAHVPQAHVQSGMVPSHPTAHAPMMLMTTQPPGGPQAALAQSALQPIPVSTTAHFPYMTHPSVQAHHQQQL
ASSAY: qHTS for Inhibitors of ATXN expression.
Type: functional
Hit rate of the full screen: of about 400,000 compounds, about 2,100 (0.53%) were called active. About 14% were inconclusive and are not listed. The rule behind the calls is not given here. This is one part of a sample in which actives are shown more often than they occur.
Labels: 1.0 for active, 0.0 for inactive

COMPOUND	CLASSIFICATION
N#CCCN(Cc1ccccc1)C(C(=O)NC1CCCCC1)c1cc2ccccc2o1 (configuration not stated)	1.0
C[C@H](c1ccccc1)N1C[C@@H](COCc2ccccc2)Oc2cc(N3CC[C@H](N(C)C)C3)ccc2S1(=O)=O	1.0
Cc1nc(N2N=C3/C(=C/c4ccc(F)cc4)CCCC3C2c2ccc(F)cc2)sc1C(=O)N(C)C (configuration not stated)	0.0
CCNc1ccc2c(Cl)cc(=O)oc2c1	0.0
O=C(CSc1nnnn1C1CC1)N1CCN(c2ccc(O)cc2)CC1	0.0
CCN1C(=O)N(CC)C2C1N(CO)C(=O)N2CO (configuration not stated)	0.0
COC(c1ccccc1)(c1ccccc1)C(Oc1nc(C)cc(C)n1)C(=O)O (configuration not stated)	0.0
CCN(CC)c1ccc(C(=O)c2cnc(/N=C/N(C)C)s2)cc1	0.0
N=c1c(C(=O)NC2CCCC2)cc2c(=O)n3ccccc3nc2n1Cc1ccccc1	0.0
CC(OC(=O)c1ccc([N+](=O)[O-])s1)C(=O)NC1CCCCC1C (configuration not stated)	0.0
Nc1c(C(=O)NCc2ccco2)c2nc3ccccc3nc2n1CCc1ccc(F)cc1	0.0
Cc1nnsc1C(=O)NNC(=O)Nc1ccccc1	0.0
CCCCC[C@@H](C)N1C[C@@H](COCc2ccccc2)Oc2cc(N3CC[C@H](N(C)C)C3)ccc2S1(=O)=O	1.0
CNC(=O)c1sc(N2N=C3/C(=C/c4ccccc4)CCCC3C2c2ccccc2)nc1C (configuration not stated)	0.0
COCCNC(=O)c1cc2nc3c(c(C(F)(F)F)n2n1)CCc1ccccc1-3	0.0
O=c1cc(-c2ccccc2)[nH]n1-c1ccc([N+](=O)[O-])cc1	1.0
CC(=O)N(Cc1ccccc1)c1ncc2c(n1)c(=O)c(C#N)c1ccccn12	0.0
CC(C)C(Cl)=NOC(=O)Nc1ccc(S(N)(=O)=O)cc1	1.0
CCOC(=O)NN=C1c2ccccc2-c2nc3nonc3nc21	1.0
CCCCCCc1cc2cc(-c3nnc(-c4ccccc4O)o3)c(=O)oc2cc1O	0.0
Cn1c(Cl)c(/C=N/OC(=O)C2CC2)c2ccccc21	0.0
COCCn1c(=N)c(C(=O)NC(C)c2ccccc2)cc2c(=O)n3cc(C)ccc3nc21 (configuration not stated)	0.0
CC(C)CC1C(=O)N(Cc2cn(Cc3ccco3)nn2)CCS(=O)(=O)N1Cc1ccc(-c2cccc(CO)c2)cc1 (configuration not stated)	1.0
NS(=O)(=O)c1ccc(NC(=O)COC(=O)COc2cccc(C(F)(F)F)c2)cc1	0.0
CN(C)CC(O)c1ccc(C=Cc2ccc(Cl)cc2)cc1 (configuration not stated)	1.0
C/C(=N\NC(=S)NCCc1ccccc1)c1ccc(Cl)cc1Cl	0.0
N=c1c(C(=O)NC2CCCCC2)cc2c(=O)n3ccccc3nc2n1Cc1ccccc1	0.0
CN1CCc2c(sc3c2C(=O)NC(c2ccccc2)N3)C1 (configuration not stated)	0.0
CCCn1c(O)nnc1SCC(=O)N1N=C2/C(=C/c3ccc(OC)cc3)CCCC2C1c1ccc(OC)cc1 (configuration not stated)	1.0
Cc1csc(Nc2ccc(Cl)cc2)[n+]1-c1ccc(Cl)cc1	0.0
Oc1nc2ccccc2nc1/C=C/c1ccc(Cl)cc1	0.0
CCOC(=O)c1c(C)[nH]c2c1-c1ccccc1C(=O)C2=O	1.0
COc1cc(C(=O)NN=C(S)Nc2ccc(S(N)(=O)=O)cc2)cc(OC)c1OC	0.0
CC1(Cc2ccccc2Cl)C(=O)Nc2cc(-c3ccccc3Cl)ccc21 (configuration not stated)	1.0
CCCCC[C@H](C)N1C[C@H](COCc2ccccc2)Oc2cc(N3CC[C@H](N(C)C)C3)ccc2S1(=O)=O	1.0
O=c1oc2cc(O)ccc2cc1-c1ccc(F)cc1	0.0
CC1CCc2sc(C(=O)OCC(=O)NC(C)C)cc2C1 (configuration not stated)	0.0
CCOC(=O)Nc1c2ccccc2nc2ccccc12	0.0
O=C(NC1CCCCC1)c1cccc2c1C(=O)c1ccc(N3CCC(Cc4ccccc4)CC3)cc1S2(=O)=O	0.0
Cc1ccccc1NS(=O)(=O)c1nnc(NC(=O)c2ccccc2C)s1	0.0
COc1ccc(-c2c(C)c3ccc(O)c(CN4CCC(C)CC4)c3oc2=O)cc1OC	0.0
Cc1cc(F)ccc1S(=O)(=O)Nc1ccccc1C(=O)Nc1ccccc1-c1nc2ccccc2[nH]1	1.0

Source of measurements: ChEMBL document CHEMBL1201862
